- Test system: 521955-158-R2-J5-PDC complex spheroid viability
- assay.protocol: Anticancer human tumor 521955-158-R2-J5-PDC patient-derived pancreatic carcinoma cell line growth inhibition; active means viability on the fitted dose curve at most 10% of control; inactive means the rest
- condition.parameters: second compound 3.16 µM; first compound 0.0316 µM
Answer with one of the outcomes given here: active, inactive

Worked examples follow.
COc1cc(Nc2ncc3c(n2)-c2ccc(Cl)cc2C(c2c(F)cccc2OC)=NC3)ccc1C(=O)O + NC1CC1c1ccc(-c2cccc(O)c2)cc1 :: inactive
CC(C)CC(NC(=O)C(Cc1ccccc1)NC(=O)c1cnccn1)B(O)O (configuration not stated) + NC1CCC(NC2CC2c2ccccc2)CC1 :: active
CC(C)CC(NC(=O)C(Cc1ccccc1)NC(=O)c1cnccn1)B(O)O (configuration not stated) + NC1CC1c1ccc(-c2cccc(O)c2)cc1 :: active
O=C(c1cc(Cc2n[nH]c(=O)c3ccccc23)ccc1F)N1CCN(C(=O)C2CC2)CC1 + NC1CCC(NC2CC2c2ccccc2)CC1 :: inactive
CC[C@@]1(O)C(=O)OCc2c1cc1n(c2=O)Cc2cc3c(CN(C)C)c(O)ccc3nc2-1 + NC1CCC(NC2CC2c2ccccc2)CC1 :: active

Incoming: Please state the recorded outcome for this molecule: Nc1ncn(C2CC(O)C(CO)O2)c(=O)n1 (configuration not stated) + NC1CCC(NC2CC2c2ccccc2)CC1
Outgoing: inactive

Incoming: What was the test verdict on COc1cc(Nc2ncc3c(n2)-c2ccc(Cl)cc2C(c2c(F)cccc2OC)=NC3)ccc1C(=O)O + NC1CCC(NC2CC2c2ccccc2)CC1 ?
Outgoing: inactive

----------
- Tested on: 521955-158-R2-J5-PDC complex spheroid viability
- assay.protocol: Anticancer human tumor 521955-158-R2-J5-PDC cell line growth inhibition;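 further: spheroids exposed to agents for seven days; percent of DMSO vehicle control luminescence viability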
- condition.parameters: second compound 0.1 µM; first compound 0.0316 µM; active compounds read low
Reported viability, T/C values for the following compounds.
Write down the numeric answer in % and omit the unit.

Solved entries (count: 2):
COc1cc(Nc2ncc3c(n2)-c2ccc(Cl)cc2C(c2c(F)cccc2OC)=NC3)ccc1C(=O)O + NC1CC1c1ccc(-c2cccc(O)c2)cc1 :: 69.4
CC1COCCN1c1cc(-c2ccnn2C)c2ccnc(-c3ccn[nH]3)c2n1 (stereo not drawn) + NC1CCC(NC2CC2c2ccccc2)CC1 :: 15.4

Incoming: Given the compound CC1(C)CCC(CN2CCN(c3ccc(C(=O)NS(=O)(=O)c4ccc(NCC5CCOCC5)c([N+](=O)[O-])c4)c(Oc4cnc5[nH]ccc5c4)c3)CC2)=C(c2ccc(Cl)cc2)C1 + NC1CCC(NC2CC2c2ccccc2)CC1 , what is its reported viability, T/C?
Outgoing: 109

----------
- Tested on: 521955-158-R2-J5-PDC complex spheroid viability
- assay.protocol: Anticancer human tumor 521955-158-R2-J5-PDC cell line growth inhibition;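 further: spheroids exposed to agents for seven days; percent of DMSO vehicle control luminescence viability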
- condition.parameters: second compound 3.16 µM; first compound 0.316 µM; active compounds read low
Flag rule - viability, T/C less than 70% flags yes (1); the remaining entries get no (0).

See these solved cases before continuing.
CC(C)c1c(-c2ccccc2)nc2c(C#N)c[nH]n2c1=O + NC1CCC(NC2CC2c2ccccc2)CC1 :: no (0)
O=C(c1cc(Cc2n[nH]c(=O)c3ccccc23)ccc1F)N1CCN(C(=O)C2CC2)CC1 + NC1CC1c1ccc(-c2cccc(O)c2)cc1 :: no (0)
Nc1ncn(C2CC(O)C(CO)O2)c(=O)n1 (stereo unspecified) + NC1CC1c1ccc(-c2cccc(O)c2)cc1 :: no (0)
CC1(C)CCC(CN2CCN(c3ccc(C(=O)NS(=O)(=O)c4ccc(NCC5CCOCC5)c([N+](=O)[O-])c4)c(Oc4cnc5[nH]ccc5c4)c3)CC2)=C(c2ccc(Cl)cc2)C1 + NC1CC1c1ccc(-c2cccc(O)c2)cc1 :: no (0)
CC1COCCN1c1cc(-c2ccnn2C)c2ccnc(-c3ccn[nH]3)c2n1 (stereo unspecified) + NC1CC1c1ccc(-c2cccc(O)c2)cc1 :: yes (1)

Continue with the compound presented below.
Incoming: Please indicate whether the reported viability, T/C of CC1(C)CCC(CN2CCN(c3ccc(C(=O)NS(=O)(=O)c4ccc(NCC5CCOCC5)c([N+](=O)[O-])c4)c(Oc4cnc5[nH]ccc5c4)c3)CC2)=C(c2ccc(Cl)cc2)C1 + NC1CCC(NC2CC2c2ccccc2)CC1 is strictly below 70%.
Outgoing: no (0)

----------
- System: 521955-158-R2-J5-PDC complex spheroid viability
- assay.protocol: Anticancer human tumor 521955-158-R2-J5-PDC cell line growth inhibition;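 further: spheroids exposed to agents for seven days; percent of DMSO vehicle control luminescence viability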
- condition.parameters: second compound 3.16 µM; first compound 3.16 µM; active compounds read low
# if measured viability, T/C < 60%: label 1  # else: label 0

These solved cases illustrate the format of a correct answer.
CC1COCCN1c1cc(C2(S(C)(=N)=O)CC2)nc(-c2ccnc3[nH]ccc23)n1 (stereo not given) + NC1CCC(NC2CC2c2ccccc2)CC1 :: label 1
O=C(c1cc(Cc2n[nH]c(=O)c3ccccc23)ccc1F)N1CCN(C(=O)C2CC2)CC1 + NC1CC1c1ccc(-c2cccc(O)c2)cc1 :: label 0
CC1(C)CCC(CN2CCN(c3ccc(C(=O)NS(=O)(=O)c4ccc(NCC5CCOCC5)c([N+](=O)[O-])c4)c(Oc4cnc5[nH]ccc5c4)c3)CC2)=C(c2ccc(Cl)cc2)C1 + NC1CC1c1ccc(-c2cccc(O)c2)cc1 :: label 0
COc1ccc([C@@H](O)c2cc(-c3ncnc4cc(N5CCOCC5)ccc34)c(F)cc2Cl)nn1 + NC1CC1c1ccc(-c2cccc(O)c2)cc1 :: label 1
CC1(C)CCC(CN2CCN(c3ccc(C(=O)NS(=O)(=O)c4ccc(NCC5CCOCC5)c([N+](=O)[O-])c4)c(Oc4cnc5[nH]ccc5c4)c3)CC2)=C(c2ccc(Cl)cc2)C1 + NC1CCC(NC2CC2c2ccccc2)CC1 :: label 1
CC(C)c1c(-c2ccccc2)nc2c(C#N)c[nH]n2c1=O + NC1CCC(NC2CC2c2ccccc2)CC1 :: label 0

Incoming: Is 60% strictly greater than the compound's reported viability, T/C? compound: COc1ccc([C@@H](O)c2cc(-c3ncnc4cc(N5CCOCC5)ccc34)c(F)cc2Cl)nn1 + NC1CCC(NC2CC2c2ccccc2)CC1
Outgoing: label 1

Incoming: Please let me know if CC1COCCN1c1cc(C2(S(C)(=N)=O)CC2)nc(-c2ccnc3[nH]ccc23)n1 (stereo not given) + NC1CC1c1ccc(-c2cccc(O)c2)cc1 shows viability, T/C below 60%.
Outgoing: label 1

Incoming: Strictly below 60%: is that where viability, T/C of O=C(c1cc(Cc2n[nH]c(=O)c3ccccc23)ccc1F)N1CCN(C(=O)C2CC2)CC1 + NC1CCC(NC2CC2c2ccccc2)CC1 sits?
Outgoing: label 0

----------
- Tested on: 521955-158-R2-J5-PDC complex spheroid viability
- assay.protocol: Anticancer human tumor 521955-158-R2-J5-PDC cell line growth inhibition; active = viability on the fitted dose curve at most 10% of control; inactive = the rest;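 further: spheroids exposed to agents for seven days; percent of DMSO vehicle control luminescence viability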
- condition.parameters: second compound 3.16 µM; first compound 0.00316 µM
A correct response names exactly one class from active, inactive

Illustrative cases are given below, each with its answer.
CC(C)CC(NC(=O)CNC(=O)c1cc(Cl)ccc1Cl)B1OC(=O)CC(CC(=O)O)(C(=O)O)O1 (stereo unspecified) + NC1CC1c1ccc(-c2cccc(O)c2)cc1 :: inactive
CC(C)CC(NC(=O)C(Cc1ccccc1)NC(=O)c1cnccn1)B(O)O (stereo unspecified) + NC1CCC(NC2CC2c2ccccc2)CC1 :: active
Nc1ncn(C2CC(O)C(CO)O2)c(=O)n1 (stereo unspecified) + NC1CC1c1ccc(-c2cccc(O)c2)cc1 :: inactive
CC1COCCN1c1cc(-c2ccnn2C)c2ccnc(-c3ccn[nH]3)c2n1 (stereo unspecified) + NC1CC1c1ccc(-c2cccc(O)c2)cc1 :: inactive
CC[C@@]1(O)C(=O)OCc2c1cc1n(c2=O)Cc2cc3c(CN(C)C)c(O)ccc3nc2-1 + NC1CCC(NC2CC2c2ccccc2)CC1 :: inactive

Incoming: Can you look up the reported call for O=C(C=Cn1cnc(-c2cc(C(F)(F)F)cc(C(F)(F)F)c2)n1)NNc1cnccn1 + NC1CCC(NC2CC2c2ccccc2)CC1 for me?
Outgoing: inactive

Incoming: Query: recorded result category for CC(C)CC(NC(=O)CNC(=O)c1cc(Cl)ccc1Cl)B1OC(=O)CC(CC(=O)O)(C(=O)O)O1 (stereo unspecified) + NC1CCC(NC2CC2c2ccccc2)CC1 in this test
Outgoing: inactive

Incoming: Tell me the recorded outcome of this test for CC[C@@]1(O)C(=O)OCc2c1cc1n(c2=O)Cc2cc3c(CN(C)C)c(O)ccc3nc2-1 + NC1CC1c1ccc(-c2cccc(O)c2)cc1 .
Outgoing: inactive

Incoming: // outcome(item) with item = COc1cc(Nc2ncc3c(n2)-c2ccc(Cl)cc2C(c2c(F)cccc2OC)=NC3)ccc1C(=O)O + NC1CC1c1ccc(-c2cccc(O)c2)cc1
Outgoing: inactive

Incoming: Given Cn1ncnc1C1c2n[nH]c(=O)c3cc(F)cc(c23)NC1c1ccc(F)cc1 (stereo unspecified) + NC1CC1c1ccc(-c2cccc(O)c2)cc1 , state the outcome it received in this test.
Outgoing: inactive
